Target: GPR139 (Homo sapiens, UniProt Q6DWJ6)
Test: Ca2+ mobilization assay, agonist mode, stable GPR139-CHOk1 cell line
Type: cell-based
Conditions: Supplementary Table 7; enantiopure compounds; read-out: pEC50, Ca2+ mobilization (converted)
EC50 reference
Respond with the bare value in nM.

>>> df
                                   molecule  recorded_metric  result_number
0  CC(NC(=O)CNC(=O)c1cccc(Cl)c1)c1ccccc1 (stereo not shown) [JNJ-63533054, reference compound]             EC50           15.8
1  C[C@@H](NC(=O)CNC(=O)c1cccc(Cl)c1)c1ccccc1 [JNJ(R), reference compound]             EC50           3160
2  Cc1cscc1-c1nc(CC(=O)N[C@H](C)c2ccccc2)no1 [1.1(R)]             EC50            316

Next:
Record COc1cc(OC)cc(C(=O)NNC(=O)Nc2cccc3ccccc23)c1 [Lundbeck Cmp 1a, reference compound] . Reported EC50: 158

* * *

Target: GPR139 (Gi2 activation) (Homo sapiens)
Construct: expressed in transfected cells; host or cells: HEK293A (transient, Lipofectamine 2000)
Assay: BRET G protein activation (dissociation) assay, Gi2, HEK293A
Type: cell-based
Settings: Supplementary Table 6; read-out: pEC50 Gi2 (converted)
EC50 reference
Respond with the bare value in µM.

>>> df
                                   compound  units_label  result_number
0  Cc1cscc1-c1nc(CC(=O)N[C@@H](C)c2ccccc2)no1 [1.1(S)]           µM         0.0501
1  Cc1cscc1-c1nc(CC(=O)N[C@H](C)c2ccccc2)no1 [1.1(R)]           µM          0.794
2  C[C@@H](NC(=O)CNC(=O)c1cccc(Cl)c1)c1ccccc1 [JNJ(R), reference compound]           µM           3.98

Next:
// EC50 (GPR139 (Gi2 activation) (Homo sapiens)) for CC(NC(=O)CNC(=O)c1cccc(Cl)c1)c1ccccc1 (stereo not shown) [JNJ-63533054, reference compound] = 0.0501

* * *

Molecular target: UniProt Q6DWJ6
Sequence (Q6DWJ6 1-353): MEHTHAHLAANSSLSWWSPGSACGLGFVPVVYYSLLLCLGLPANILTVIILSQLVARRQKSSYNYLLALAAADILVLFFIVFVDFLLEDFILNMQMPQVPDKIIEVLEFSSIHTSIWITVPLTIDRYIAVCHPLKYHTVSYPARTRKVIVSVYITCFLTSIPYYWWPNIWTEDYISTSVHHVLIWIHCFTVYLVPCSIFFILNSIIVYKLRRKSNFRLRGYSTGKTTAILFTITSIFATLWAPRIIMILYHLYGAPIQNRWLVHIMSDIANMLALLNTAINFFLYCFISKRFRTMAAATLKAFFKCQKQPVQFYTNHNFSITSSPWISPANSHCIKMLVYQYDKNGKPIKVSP
Assay: Ca2+ mobilization assay, agonist mode, stable GPR139-CHOk1 cell line
Format: cell-based
Conditions: GPR139-CHOk1; read-out: EC50, Ca2+ mobilization
Recorded Metric: EC50 (nM)
Respond with the bare value in nM.

                                   compound  units_label  result_number
0  CC(NC(=O)Cn1cncc(-c2ccccc2)c1=O)c1ccccc1 (stereo not drawn)           nM           3600
1  Cc1cscc1-c1nc(CC(=O)NC(C)c2ccccc2)no1 (stereo not drawn)           nM             50
2  COc1cccc(-c2nc(CC(=O)NC(C)c3ccccc3)no2)c1 (stereo not drawn)           nM            200
3  Cc1cscc1-c1nc(CC(=O)N[C@@H](C)c2ccccc2)no1 [1.1(S)]           nM              8
4  Cc1ccc(-c2nc(CC(=O)NC(C)c3ccccc3)no2)cc1 (stereo not drawn)           nM            400

Record COc1ccc(-c2nc(CC(=O)NC(C)c3ccccc3)no2)cc1 (stereo not drawn) . Reported EC50: 1000

* * *

Biological target: GPR139 (Homo sapiens)
Assay: Ca2+ mobilization assay, agonist mode, stable GPR139-CHOk1 cell line
Format: cell-based
Settings: Supplementary Table 2; normalized to Lundbeck Cmp 1a; mean ± SEM; read-out: Emax (%) Ca2+
Recorded Metric: Emax
Answer shape: numeric part, then the unit.

Before answering, review these 4 worked examples.
In [3]: df
Out[3]:
                                   compound         assayed_system  recorded_metric  result
0  Cc1cc(-c2nc(CC(=O)NC(C)c3ccccc3)no2)ns1 (centres unmarked) [Compound 1.43]  GPR139 (Homo sapiens)             Emax    102%
1  Cc1noc(CNC(=O)C2(C)CCCCN2C(=O)c2ccccc2)n1 (centres unmarked) [Compound 4]  GPR139 (Homo sapiens)             Emax    100%
2  COc1ccc(-c2nc(CC(=O)NC(C)c3ccccc3)no2)cc1 (centres unmarked) [Compound 1.18]  GPR139 (Homo sapiens)             Emax     72%
3  Cc1cc(-c2nc(CC(=O)NC(C)c3ccccc3)no2)on1 (centres unmarked) [Compound 1.30]  GPR139 (Homo sapiens)             Emax     79%

Record Cc1ccc(-c2nc(CC(=O)NC(C)c3ccccc3)no2)cc1C (centres unmarked) [Compound 1.20] . Reported Emax: 86%

* * *

Target: GPR139 (Homo sapiens, UniProt Q6DWJ6)
Sequence (Q6DWJ6 1-353): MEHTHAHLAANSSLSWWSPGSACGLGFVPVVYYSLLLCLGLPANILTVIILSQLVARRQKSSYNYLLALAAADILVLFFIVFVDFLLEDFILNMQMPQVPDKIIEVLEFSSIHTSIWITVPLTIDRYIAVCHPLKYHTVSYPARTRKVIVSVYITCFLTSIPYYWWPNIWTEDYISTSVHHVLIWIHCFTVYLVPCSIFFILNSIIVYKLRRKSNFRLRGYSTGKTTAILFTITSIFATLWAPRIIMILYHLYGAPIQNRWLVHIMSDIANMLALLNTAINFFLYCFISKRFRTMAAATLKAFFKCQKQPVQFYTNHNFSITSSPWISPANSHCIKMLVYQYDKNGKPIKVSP
Experiment: Ca2+ mobilization assay, agonist mode, stable GPR139-CHOk1 cell line
Assay type: cell-based
Details: Supplementary Table 2; normalized to Lundbeck Cmp 1a; mean ± SEM; read-out: Emax (%) Ca2+
Protocol: Primary screening and pharmacological characterization of compounds were performed using a CHO-K1 cell line that stably expresses human GPR139 (GPR139-CHOk1). The GPR139-CHOk1 cell line was kindly provided by H. Lundbeck A/S, Denmark[24]. […]
Emax reference
Respond with the bare value in %.

Before answering, review these 5 worked examples.
>>> df
                                   compound  units_label  result_number
0  Cc1ccc(-c2nc(CC(=O)NC(C)c3ccccc3)no2)cn1 (stereo not shown)            %             82
1  Cc1ccnc(-c2nc(CC(=O)NC(C)c3ccccc3)no2)c1 (stereo not shown)            %             98
2  Cc1cc(-c2nc(CC(=O)NC(C)c3ccccc3)no2)n(C)n1 (stereo not shown)            %             93
3  Cc1csc(-c2nc(CC(=O)NC(C)c3ccccc3)no2)c1 (stereo not shown)            %            105
4  CCn1nc(-c2nc(CC(=O)NC(C)c3ccccc3)no2)cc1C (stereo not shown)            %             96

Record Cc1cc(-c2nc(CC(=O)NC(C)c3ccccc3)no2)no1 (stereo not shown) . Reported Emax: 95

Record COc1cc(-c2nc(CC(=O)NC(C)c3ccccc3)no2)ccn1 (stereo not shown) . Reported Emax: 113

Record Cc1noc(C(C)NC(=O)Nc2cccc(-c3ccccc3)c2)n1 (stereo not shown) . Reported Emax: 70

Record Cc1ccc(-c2nc(CC(=O)NC(C)c3ccccc3)no2)s1 (stereo not shown) . Reported Emax: 86

Record CC(NC(=O)Cc1noc(-c2cccs2)n1)c1ccccc1 (stereo not shown) . Reported Emax: 107

Record Cc1nc(-c2nc(CC(=O)NC(C)c3ccccc3)no2)cs1 (stereo not shown) . Reported Emax: 105

Record Cc1nocc1-c1nc(CC(=O)NC(C)c2ccccc2)no1 (stereo not shown) . Reported Emax: 103

* * *

Target: GPR139 (Homo sapiens)
Assay: Ca2+ mobilization assay, agonist mode, stable GPR139-CHOk1 cell line
Type: cell-based
Conditions: Supplementary Table 2; mean ± SEM; read-out: pEC50 Ca2+ (converted)
EC50 reference
Respond with the bare value in nM.

>>> print(df.to_string())
                                   molecule  result_number
0  Cc1ncc(-c2nc(CC(=O)NC(C)c3ccccc3)no2)o1 (centres unmarked) [Compound 1.25]           2000
1  Cc1noc(CNC(=O)C2(C)CCCCN2C(=O)c2ccccc2)n1 (centres unmarked) [Compound 4]           3980
2  COc1ccc(-c2nc(CC(=O)NC(C)c3ccccc3)no2)cn1 (centres unmarked) [Compound 1.26]           2000
3  Cc1ccc(-c2nc(CC(=O)NC(C)c3ccccc3)no2)cc1C (centres unmarked) [Compound 1.20]           1260

Next:
Record Cc1cccc(-c2nc(CC(=O)NC(C)c3ccccc3)no2)n1 (centres unmarked) [Compound 1.13] . Reported EC50: 398
